system: MCF7; test: Cytotoxicity against human MCF7 cells after 72 hrs by MTT assay; type: functional, cell-based; details: MCF7, 72 h
MEASUREMENT KIND: IC50 (µM)
Write it as a number; the unit µM goes unstated.

Q: Look up IC50: N#Cc1c(/N=C/c2cc3cc(Br)ccc3[nH]2)sc2c1CCCCC2
A: 14.9

====

tested on: Staphylococcus aureus; assay: Antibacterial activity against Staphylococcus aureus; format: functional, organism-based; details: Staphylococcus aureus
MEASUREMENT KIND: IC50 (µM)
Field format: number, assumed µM, no unit text.

Q: Using the record for O=C(N[C@H](CO)[C@H](O)c1ccc([N+](=O)[O-])cc1)C(Cl)Cl , report its IC50.
A: 22.5

====

molecular target: Large neutral amino acids transporter small subunit 1 (Homo sapiens); assay: Inhibition of recombinant human LAT1
Sequence (Q01650 whole entry): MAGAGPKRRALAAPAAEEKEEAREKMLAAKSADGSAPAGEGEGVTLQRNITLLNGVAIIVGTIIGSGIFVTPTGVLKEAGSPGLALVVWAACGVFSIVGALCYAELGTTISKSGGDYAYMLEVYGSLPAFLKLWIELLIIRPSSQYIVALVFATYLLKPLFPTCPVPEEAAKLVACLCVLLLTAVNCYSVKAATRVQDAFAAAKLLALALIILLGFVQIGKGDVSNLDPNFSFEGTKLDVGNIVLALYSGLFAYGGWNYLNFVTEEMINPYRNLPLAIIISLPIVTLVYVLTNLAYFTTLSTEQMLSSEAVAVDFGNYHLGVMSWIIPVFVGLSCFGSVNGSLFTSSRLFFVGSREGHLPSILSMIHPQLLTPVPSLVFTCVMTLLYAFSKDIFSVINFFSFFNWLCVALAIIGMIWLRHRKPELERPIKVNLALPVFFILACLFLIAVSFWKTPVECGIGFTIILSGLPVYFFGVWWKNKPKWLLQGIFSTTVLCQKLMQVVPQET
MEASUREMENT KIND: pIC50
In simple prose, pIC50 is minus the logarithm base ten of a concentration in moles per litre.

Q: Would you mind telling me what pIC50 value was observed for FC(F)(F)Oc1ccc(/N=c2\ssnc2Cl)nc1 ?
A: 6.01

====

target: Prostaglandin G/H synthase 2 (Homo sapiens)
Sequence (P35354 whole entry): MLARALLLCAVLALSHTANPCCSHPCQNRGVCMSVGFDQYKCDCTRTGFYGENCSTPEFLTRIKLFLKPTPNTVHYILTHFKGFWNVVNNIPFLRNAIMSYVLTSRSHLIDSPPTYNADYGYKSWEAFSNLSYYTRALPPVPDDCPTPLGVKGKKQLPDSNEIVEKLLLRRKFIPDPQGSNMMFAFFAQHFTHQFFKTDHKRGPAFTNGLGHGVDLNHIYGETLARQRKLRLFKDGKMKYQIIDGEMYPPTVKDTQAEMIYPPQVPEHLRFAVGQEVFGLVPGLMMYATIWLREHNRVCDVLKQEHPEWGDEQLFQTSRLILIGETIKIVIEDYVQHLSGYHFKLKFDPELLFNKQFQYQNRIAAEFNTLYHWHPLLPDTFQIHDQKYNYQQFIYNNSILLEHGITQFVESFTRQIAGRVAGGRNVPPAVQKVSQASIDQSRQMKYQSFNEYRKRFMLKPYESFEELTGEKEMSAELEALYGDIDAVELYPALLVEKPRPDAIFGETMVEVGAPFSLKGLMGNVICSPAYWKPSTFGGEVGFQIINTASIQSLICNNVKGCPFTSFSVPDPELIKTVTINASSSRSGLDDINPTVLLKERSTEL
MEASUREMENT KIND: pIC50
// pIC50: -log10(molar conc.)

Q: Checklist item: pIC50 tested on Prostaglandin G/H synthase 2 (Homo sapiens), entry COc1ccc(-c2nn(-c3ccc(S(C)(=O)=O)cc3)cc2/C=C2\SC(=O)NC2=O)cc1 , value?
A: 6.06

====

target: Peroxisome proliferator-activated receptor gamma (Homo sapiens, UniProt P37231); experiment: Inhibition of PPARgamma (unknown origin)
Sequence (P37231 whole entry): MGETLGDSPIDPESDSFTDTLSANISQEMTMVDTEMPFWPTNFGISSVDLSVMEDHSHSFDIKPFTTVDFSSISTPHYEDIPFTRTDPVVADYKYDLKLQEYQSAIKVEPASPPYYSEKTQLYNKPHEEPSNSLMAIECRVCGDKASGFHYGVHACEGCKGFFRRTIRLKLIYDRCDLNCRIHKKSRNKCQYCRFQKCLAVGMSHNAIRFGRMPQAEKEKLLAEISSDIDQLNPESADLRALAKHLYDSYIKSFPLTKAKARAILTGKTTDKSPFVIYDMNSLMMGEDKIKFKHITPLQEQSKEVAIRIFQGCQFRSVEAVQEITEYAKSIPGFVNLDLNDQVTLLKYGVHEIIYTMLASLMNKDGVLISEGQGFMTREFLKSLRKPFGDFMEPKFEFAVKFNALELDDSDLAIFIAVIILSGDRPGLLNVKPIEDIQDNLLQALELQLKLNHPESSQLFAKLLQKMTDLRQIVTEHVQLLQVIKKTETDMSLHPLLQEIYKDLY
MEASUREMENT KIND: EC50 (µM)
Supply the numeric figure in µM, leaving out any unit text.

Q: // query EC50 value for entry CCCCNC(=O)CN1C(=O)S/C(=C/c2ccc(Cl)cc2)C1=O
A: 5.9
